Measured % Change Compared to pH 7.4 + Calcium, listed per entry.
Target: T1, recombinant, soluble human ASGR-1 (human, UniProt P07306 62-291)
T1 construct: biotinylated in the binning assay; also called soluble huASGR-1; Soluble ASGR-1 (Amgen)
T1 sequence: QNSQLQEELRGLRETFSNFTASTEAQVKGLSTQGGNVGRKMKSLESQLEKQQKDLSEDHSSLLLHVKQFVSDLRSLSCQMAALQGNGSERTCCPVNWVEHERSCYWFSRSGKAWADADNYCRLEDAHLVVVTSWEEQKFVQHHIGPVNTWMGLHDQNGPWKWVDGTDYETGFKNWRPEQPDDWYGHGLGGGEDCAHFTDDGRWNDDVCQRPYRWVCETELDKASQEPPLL
Experiment: Octet BLI dissociation, pH 5.6 plus calcium
Experimental: The relative dissociation of ASGR-1 from antibodies was measured using a label-free assay on an OctetHTX instrument (Fortebio). Antibody samples were captured on anti-HuFc kinetic biosensors (ForteBio cat #18-5064) at 5 ug/mL in assay buffer (10 mM Tris, 0.1% Triton, 150 mM NaCl, 1 mg/mL BSA, 1 mM CaCl2, pH7.4) for three minutes. […] Soluble ASGR-1 (Amgen) at 6 ug/ml in assay buffer was added and association to the antibodies was monitored for two minutes. […]
Provide only the numeric value, understood in %.

BINDER	RECORDED_RESULT
63A10 (antibody, V domains shown, hybridoma mAb) VH: EVQLVESGGGLVQPGGSLRLSCAASGFTFSSYSMNWVRQAPGKGLEWVSYISSSTSTIYYAASVKGRFTISRDNAKNSLYLQMNSLRDEDTAVYYCARDHRYYDSSGYYSDAFDIWGQGTMVTVSS VL: NFMLTQPHSVSESPGKTVTISCTRSNGSIVSNYVQWYQQRPGSSPTTVIYEDKRRPSGVPDRFSGSIDSSSNSASLTISGLKTEDEADYYCQSYDSINVVFGGGTKLTVL	3
159H8 (antibody, V domains shown, hybridoma mAb) VH: QVQLVESGGGVVQPGRSLRLSCAASGFTFSTYGMHWVRQAPGKGLEWVAVIWYDGSNKYYADSVKGRFTISRDNSKNTLYLQMNSLRAEDTAVYYCARDRVSCSSTSCPYYYYYGMDVWGQGTTVTVSS VL: SYELTQPPSVSVSPGQTASITCSGDKLGDKYVCWYQQKPGQSPVLVIYQDRKRPSGIPERFSGSNSGNTATLTISGTQALDEADYYCQAWGNSSFVVFGGGTKLTVL	10

Field: next binder
Exercise: Give % Change Compared to pH 7.4 + Calcium for 160B12 (antibody, V domains shown, hybridoma mAb) VH: QVQLVESGGGVVQPGRSLRLSCAASGFTFSSYGMHWVRQAPGKGLEWVAVIWYDGSNKYYADSVKGRFTISRDNSKNTLYLQMNSLRAEDTAVYYCARDRVSCSSTSCPYYYYYGMDVWGQGTTVTVSS VL: SDELTQSPSVSVSPGQTASITCSGDKLGDKYVCWYQQKPGQSPVLVIYQDSKRPSGIPERFSGSNSGNTATLTISGTQALDEADYYCQAWGNSSFVVFGGGTKLTVL
Solution: 8
